MEASURED_ON: T1, human PCSK9 variant b (human, UniProt Q8NBP7 31-692)
T1 construct: also called Human PCSK9 var B; hPCSK9b
PROTOCOL_DETAILS: ProteOn SPR, captured antibody, pH 7.6;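 note: antibodies captured via anti-human Fc on a GLC sensor chip, PCSK9 binding sensorgrams fitted to a 1:1 Langmuir model giving on and off rates, with KD derived from them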
READOUT_KIND: kon (M⁻¹ s⁻¹)
Your answer should be a plain number; it is taken to be in M⁻¹ s⁻¹.

CL-274698 (antibody, V domains shown, Human antibody with a kappa light chain, derived from a PCSK9 knockout mouse) VH: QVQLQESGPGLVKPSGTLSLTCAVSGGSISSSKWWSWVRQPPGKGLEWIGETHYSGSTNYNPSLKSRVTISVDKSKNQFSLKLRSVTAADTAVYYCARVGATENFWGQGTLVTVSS VL: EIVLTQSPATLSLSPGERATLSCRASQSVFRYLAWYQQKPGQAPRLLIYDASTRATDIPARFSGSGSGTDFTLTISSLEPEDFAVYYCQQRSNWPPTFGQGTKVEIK
1.39e+06
CL-148219 QLT mutant (antibody, V domains shown) VH: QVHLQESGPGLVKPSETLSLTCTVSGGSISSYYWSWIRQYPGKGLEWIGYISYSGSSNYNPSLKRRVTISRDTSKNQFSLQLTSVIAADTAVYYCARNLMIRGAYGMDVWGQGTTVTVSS VL: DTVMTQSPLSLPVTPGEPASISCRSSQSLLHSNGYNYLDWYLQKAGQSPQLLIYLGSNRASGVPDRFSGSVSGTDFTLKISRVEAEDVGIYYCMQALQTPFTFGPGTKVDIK
862000
CL-148489 (antibody, V domains shown, Human antibody with a kappa light chain) VH: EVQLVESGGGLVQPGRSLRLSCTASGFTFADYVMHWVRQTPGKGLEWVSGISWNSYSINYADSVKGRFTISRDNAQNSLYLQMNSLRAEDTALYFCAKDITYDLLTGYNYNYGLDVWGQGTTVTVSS VL: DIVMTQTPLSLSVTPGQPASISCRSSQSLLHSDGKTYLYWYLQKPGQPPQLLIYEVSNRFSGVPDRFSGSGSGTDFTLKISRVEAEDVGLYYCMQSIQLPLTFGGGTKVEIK
848000

// below: kon requested for another binder
What does the data say about its kon? Entry: CL-148219 (antibody, V domains shown, NLT motif in heavy chain framework 3 confirmed N-glycosylated by mass spectrometry, Human antibody, captured through anti-human Fc in the SPR assay) VH: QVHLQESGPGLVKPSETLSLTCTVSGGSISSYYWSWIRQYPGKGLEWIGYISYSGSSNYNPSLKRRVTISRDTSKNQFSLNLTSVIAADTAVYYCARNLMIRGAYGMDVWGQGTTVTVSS VL: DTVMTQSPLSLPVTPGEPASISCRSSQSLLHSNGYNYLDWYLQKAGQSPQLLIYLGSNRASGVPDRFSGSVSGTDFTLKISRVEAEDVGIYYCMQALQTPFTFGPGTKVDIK 1.05e+06
